System: NCI/ADR-RES ovarian
Test Method Notes: NCI-60 one-dose screen, 48 h (100 = growth as untreated, 0 = no growth, -100 = all killed)
Condition Summary: 10 µM unless noted
Protocol: Growth inhibition of the NCI/ADR-RES human […] tumor cell line is measured as a screen for anti-cancer activity. Cells are grown in 96 well plates and exposed to the test compound for 48 hours. Compounds are tested at a single concentration, which is 10^-5 M for most compounds. The reported endpoint is percent growth (GI% or GIPRCNT), where numbers from 0 - 100% represent growth inhibition, and numbers from -100% - 0 represent cell death. For example, a value of 40 represents 60% growth inhibition. […]
Compounds without any hit were thinned out: in the full panel of roughly 83,000, 20% have a hit.
The label met is reserved for growth strictly under 80%; not met covers values equal to or above it.

Determine if CCn1cc(C(=O)NNC(=S)Nc2ccc(C)cc2)c(=O)c2ccc(C)nc21 shows growth strictly lower than 80%.
not met

Determine if O=C(/C=C/c1ccco1)Nc1ncc(Cc2cccc(C(F)(F)F)c2)s1 shows growth strictly lower than 80%.
met

Determine if CC(C)=CCCC(C)c1ccc(C)c2c1OCN(CCCCCO)C2 (stereo not given) shows growth strictly lower than 80%.
met

Determine if COc1ccc(Cc2cnc(NC(=O)c3cc(C)oc3C)s2)cc1 shows growth strictly lower than 80%.
met

Determine if CCOC(=O)C(=O)C(C(=O)OCC)c1ccccc1 (stereo not given) shows growth strictly lower than 80%.
not met

Determine if CCSc1oc(-c2ccccc2)nc1[P+](c1ccccc1)(c1ccccc1)c1ccccc1 shows growth strictly lower than 80%.
met

Determine if Cc1ccc(-c2nc(N3CCCNCC3)c3oc(-c4ccccc4)nc3n2)cc1 shows growth strictly lower than 80%.
met

Determine if CCCOC(=O)Nc1nc2ccc(SCC(C)C)cc2s1 shows growth strictly lower than 80%.
met

Determine if Nc1nc2ccccc2c2c(=O)c3cccc(Cl)c3sc12 shows growth strictly lower than 80%.
not met

Determine if CCOC(=O)c1ccc2c(c1)nc(-c1ccccc1)n2C1CCCCC1 shows growth strictly lower than 80%.
not met

Determine if O=C(Nc1ccc(Oc2cccc(Cl)c2)c(Cl)c1)c1cccnc1 shows growth strictly lower than 80%.
met

Determine if CCC(C)N(CCNc1cc(OC)cc2cccnc12)CC(C)C (stereo not given) shows growth strictly lower than 80%.
not met

Determine if O=C1/C(=C/c2cn(-c3ccccc3)nc2-c2ccccc2)SC(=S)N1C1CCCCC1 shows growth strictly lower than 80%.
not met

Determine if Nc1nc2ccc(-c3nc4ccc5[nH]ncc5c4c4c3CCCC4)cc2s1 shows growth strictly lower than 80%.
not met

Determine if COC12C=C/C(=C(/C(=O)OCc3ccncn3)C(=O)CCCCCCCCC3(OC)C=C/C(=C(/C(=O)OCc4ccncn4)C(=O)CCCCCCCC1)O3)O2 shows growth strictly lower than 80%.
met

Determine if COc1cc(OC)c(NC(=O)c2cc3ccccc3cc2O)cc1Cl shows growth strictly lower than 80%.
met

Determine if NS(=O)(=O)c1ccc(N=Nc2c(O)n(Cc3ccccc3)c3ccc(Cl)cc23)cc1 shows growth strictly lower than 80%.
not met

Determine if C/C(=N\O)c1ccc(Cl)cc1 shows growth strictly lower than 80%.
not met

Determine if Clc1ccc2c(NC3CCC(N4CCOCC4)CC3)ccnc2c1 (stereo not given) shows growth strictly lower than 80%.
met

Determine if CCOC(=O)n1cc(-c2nonc2-c2cn(C(=O)OCC)c3ccc(Br)cc23)c2ccccc21 shows growth strictly lower than 80%.
not met

Determine if COC(=O)CC[C@H](C)[C@H]1CC[C@H]2[C@@H]3CC[C@@H]4CC5(CC[C@]4(C)[C@H]3CC(=O)[C@]12C)Nc1ccccc1NC5=NC(C)(C)C (stereo not given in full) shows growth strictly lower than 80%.
not met

Determine if O=S(=O)(Nc1ccc(Cl)c(C(F)(F)F)c1)c1ccc(-c2cnc(C3CC3)o2)cc1 shows growth strictly lower than 80%.
met

Determine if O=C(Nc1ccccc1)Nc1ncnc2c1ncn2-c1ccc(Cl)cc1 shows growth strictly lower than 80%.
met

Determine if Nc1ncnc2c1N=C(c1ccc(Br)cc1)CC(c1cccc(Nc3ccnc4cc(C(F)(F)F)ccc34)c1)N2 (stereo not given) shows growth strictly lower than 80%.
met

Determine if Cn1c(=O)c2nc(/C=C/c3ccccc3)c(=O)[nH]c2n(C)c1=S shows growth strictly lower than 80%.
not met

Determine if Nc1c(C(=O)Nc2ccccc2C(F)(F)F)sc2nc3c(cc12)CCC3 shows growth strictly lower than 80%.
not met

Determine if CSc1nnc(-c2cc3c([nH]c4ccccc43)c(-c3cccc(O)c3)n2)n1-c1ccccc1 shows growth strictly lower than 80%.
met

Determine if COc1ccc(/C=N/NC(=O)c2ccc(-n3cc(-c4ccccc4)nn3)cc2)cc1OC shows growth strictly lower than 80%.
not met

Determine if CCc1ccc(CCCC(=O)O)cc1 shows growth strictly lower than 80%.
not met

Determine if CCN(CC)CC(O)COc1c(Br)c(Br)c(Br)c2c1OC(C)(C)C2 (stereo not given) shows growth strictly lower than 80%.
not met

Determine if CN1CCN(C(=O)c2ccc(NC(=O)c3cc4c(nn3)NCCN4Cc3cc(Cl)ccc3Cl)cc2)CC1 shows growth strictly lower than 80%.
not met

Determine if O=C(/C=C/c1ccccc1)Nc1ncc(Cc2ccccc2Cl)s1 shows growth strictly lower than 80%.
met

Determine if Cc1cc(N2CCCCC2)cc(C)c1-c1csc(NC(=O)c2ccncc2)n1 shows growth strictly lower than 80%.
met

Determine if COc1ccc(C(=O)N2c3ccccc3Sc3ccccc32)c(OC)c1 shows growth strictly lower than 80%.
met

Determine if O=C1/C(=C/c2ccccc2O)CC/C1=C\c1ccccc1O shows growth strictly lower than 80%.
met

Determine if Oc1c(Br)cc(Br)c2ccc(Cn3cc(-c4ccc(C(F)(F)F)cc4)nn3)nc12 shows growth strictly lower than 80%.
not met
